Reported inhibition at 5 µg/mL is given for each of the following compounds.
molecular target: Human Polymorphonuclear Leukocyte Elastase (Homo sapiens); construct: Crude extract of human polymorphonuclear leukocytes (PMN) containing elastase activity; endogenous in cells; host or cells: human polymorphonuclear leukocytes (crude extract); assay: Enzyme assay for the inhibition of human polymorphonuclear leukocyte elastase via hydrolysis of N-t-Boc-alanyl-alanyl-prolylalanine-p-nitroanilide; type: biochemical; conditions: Conc. 5 μg/ml; measured within 2 minutes; crude PMN extract, 0.2 mM Boc-AAPAN, pH 7.5
Sequence (P08246 30-247 limits assumed): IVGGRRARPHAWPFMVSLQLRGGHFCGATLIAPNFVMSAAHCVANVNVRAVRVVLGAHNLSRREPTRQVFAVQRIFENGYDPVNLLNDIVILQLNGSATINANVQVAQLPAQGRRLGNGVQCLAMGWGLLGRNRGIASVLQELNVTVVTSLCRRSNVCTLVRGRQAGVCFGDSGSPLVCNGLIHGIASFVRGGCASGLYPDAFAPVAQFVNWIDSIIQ
Just the number please, in %, no unit attached.

CC(O)C1C(=O)N2C(C(=O)OCc3ccc([N+](=O)[O-])cc3)=C(Sc3ccncc3)CC12 (stereo not drawn)
93

Requested field: inhibition at 5 µg/mL. Item: CC(OC(=O)OCc1ccccc1[N+](=O)[O-])C1C(=O)N2C(C(=O)OCc3ccccc3[N+](=O)[O-])=CCC12 (stereo not drawn) 85

Requested field: inhibition at 5 µg/mL. Item: CC(OC(=O)OCc1ccccc1[N+](=O)[O-])C1C(=O)N2C(C(=O)OCc3ccccc3[N+](=O)[O-])=C(c3ccc(CN=[N+]=[N-])cc3)CC12 (stereo not drawn) 74

Requested field: inhibition at 5 µg/mL. Item: CC(O)C1C(=O)N2C(C(=O)OCc3ccc([N+](=O)[O-])cc3)=C(SCc3ccccn3)CC12 (stereo not drawn) 63

Requested field: inhibition at 5 µg/mL. Item: O=C(OCc1ccccc1)C1=C(SCc2ccccc2)CC2C(CO)C(=O)N12 (stereo not drawn) 90

Requested field: inhibition at 5 µg/mL. Item: CC(NC(=O)OCc1ccccc1[N+](=O)[O-])C1C(=O)N2C(C(=O)OCc3ccccc3[N+](=O)[O-])=CCC12 (stereo not drawn) 23
